- measurementTarget: KRAS (WT) (Homo sapiens, UniProt P01116)
- Construct: Biotinylated KRAS protein amino acids 1-169 (produced at Erasca); made in house
- Sequence (P01116 1-169 isoform P01116-2): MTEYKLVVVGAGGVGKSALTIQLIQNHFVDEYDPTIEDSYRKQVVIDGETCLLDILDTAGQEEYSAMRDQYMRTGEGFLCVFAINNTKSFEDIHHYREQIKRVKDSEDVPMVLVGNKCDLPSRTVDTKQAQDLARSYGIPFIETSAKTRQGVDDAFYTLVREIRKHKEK
- experimentalProtocol: In-vitro RAS-RAF binding assay (RRB), HTRF/FRET
- Format: biochemical
- recordedConditions: Table 2, average of multiple runs of each compound; read-out: Inhibition of RAS-RAF Binding (in-vitro) KRAS (WT) IC50
Threshold check on IC50: strictly below 0.07 µM is Criterion met; on or above 0.07 µM is Criterion not met.

Worked examples, 2 molecules total:
is_below(IC50, 0.07 µM) for C#Cc1c(F)ccc2cc(O)cc(-c3ncc4c(N5CC6CCC(C5)N6)nc(OC[C@@H]5CCCN5CCCOCCC(=O)N[C@H](C(=O)N5C[C@H](O)C[C@H]5C(=O)N[C@@H](CO)c5ccc(-c6scnc6C)cc5)C(C)(C)C)nc4c3F)c12 [Example 29] ? Criterion met

Hello, I'm reviewing records and need to know if IC50 of CC(C)[C@@H](C(=O)N1C[C@H](O)C[C@H]1C(=O)N[C@@H](C)c1ccc(-c2c(F)cc(F)cc2F)cc1)c1cc(OCC2CCN(CCOc3nc(N4CC5CCC(C4)N5)c4cc(C(F)(F)F)c(-c5ccc(F)c6sc(N)c(C#N)c56)c(F)c4n3)CC2)no1 [Example 78] is below 0.07 µM. Could you check? Criterion not met

Next:
Does the reported IC50 of Cc1ncsc1-c1ccc([C@H](C)NC(=O)[C@@H]2C[C@@H](O)CN2C(=O)[C@@H](NC(=O)CCCCN2CC[C@H]2COc2nc(N3CC4CCC(C3)N4)c3cc(Cl)c(-c4ccc(F)c5sc(N)c(C#N)c45)c(F)c3n2)C(C)(C)C)cc1 [Example 23] stay below 0.07 µM? Criterion met

Problem: For the molecule C#Cc1c(F)ccc2cc(O)cc(-c3ncc4c(N5CC6CCC(C5)N6)nc(OC[C@@H]5CCCN5CCCOCCC(=O)N[C@H](C(=O)N5C[C@H](O)C[C@H]5C(=O)N[C@@H](C)c5ccc(-c6c(C)cccc6C)cc5)C(C)(C)C)nc4c3F)c12 [Example 41] , is IC50 under 0.07 µM? Criterion met

Dear colleague, could you confirm whether IC50 of CC(C)[C@@H](C(=O)N1C[C@H](O)C[C@H]1C(=O)N[C@@H](C)c1ccc(-c2c(F)cccc2F)cc1)c1cc(N2CC3(CCN(CCOc4nc(N5CC6CCC(C5)N6)c5cc(C(F)(F)F)c(-c6ccc(F)c7sc(N)c(C#N)c67)c(F)c5n4)CC3)C2)no1 [Example 77] falls below 0.07 µM? Thanks. Criterion not met

Lab note: IC50 threshold 0.07 µM. Does this molecule come in strictly under it? C#Cc1c(F)ccc2cc(O)cc(-c3ncc4c(N5CC6CCC(C5)N6)nc(OC[C@@H]5CCCN5CCCOCCC(=O)N[C@H](C(=O)N5C[C@H](O)C[C@H]5C(=O)N[C@@H](C)c5ccc(-c6ccc(F)c(F)c6F)cc5)C(C)(C)C)nc4c3F)c12 [Example 55] Criterion met

In plain terms, does Cc1cc(N)nc(-c2c(Cl)cc3c(N4CC5CCC(C4)N5)nc(OC[C@@H]4CCCN4CCCOCCCOc4cc(-c5scnc5C)ccc4CNC(=O)[C@@H]4C[C@@H](O)CN4C(=O)[C@H](NC(=O)C4(F)CC4)C(C)(C)C)nc3c2F)c1C(F)(F)F [Example 3] come in under 0.07 µM for IC50? Criterion not met

Bench note: check whether C#Cc1c(F)ccc2cc(O)cc(-c3ncc4c(N5CC6CCC(C5)N6)nc(OC[C@@H]5CCCN5CCCOCCC(=O)N[C@H](C(=O)N5C[C@H](O)C[C@H]5C(=O)N[C@@H](C)c5ccc(-c6cccc(F)c6F)cc5)C(C)(C)C)nc4c3F)c12 [Example 51] shows IC50 below 0.07 µM Criterion not met

Given the entry C#Cc1c(F)ccc2cc(O)cc(-c3ncc4c(N5CC6CCC(C5)N6)nc(OC[C@@H]5CCCN5CCCOCCCC(=O)N[C@H](C(=O)N5C[C@H](O)C[C@H]5C(=O)N[C@@H](C)c5ccc(-c6c(F)cccc6F)cc5)C(C)(C)C)nc4c3F)c12 [Example 34] , would its reported IC50 be below 0.07 µM? Criterion met

is_below(IC50, 0.07 µM) for CC(C)[C@@H](C(=O)N1C[C@H](O)C[C@H]1C(=O)N[C@@H](C)c1ccc(-c2c(F)cc(F)cc2F)cc1)c1cc(N2CC3(CCN(CCOc4nc(N5CC6CCC(C5)N6)c5cc(Cl)c(-c6ccc(F)c7sc(N)c(C#N)c67)c(F)c5n4)CC3)C2)no1 [Example 68] ? Criterion not met

Field: below-cutoff. Rule: recorded IC50 strictly less than 0.07 µM. Subject: CC(C)[C@@H](C(=O)N1C[C@H](O)C[C@H]1C(=O)N[C@@H](C)c1ccc(-c2c(F)cc(F)cc2F)cc1)c1cc(OCC2(C)CCN(CCOc3nc(N4CC5CCC(C4)N5)c4cc(Cl)c(-c5ccc(F)c6sc(N)c(C#N)c56)c(F)c4n3)CC2)no1 [Example 72] Criterion not met

Could you please tell me whether IC50 recorded for CC(C)[C@@H](C(=O)N1C[C@H](O)C[C@H]1C(=O)N[C@@H](C)c1ccc(-c2c(F)cc(F)cc2F)cc1)c1cc(N2CC3(CCN(CCOc4nc(N5CC6CCC(C5)N6)c5cc(C(F)(F)F)c(-c6ccc(F)c7sc(N)c(C#N)c67)c(F)c5n4)CC3)C2)no1 [Example 75] is less than 0.07 µM? Criterion not met
